Molecular target: Glucose transporter (Leishmania mexicana) (UniProt O61059)
Experiment: ST_JUDE_LEISH: Cytotoxicity at 2uM final concentration against transgenic Leishmania Mexicana promastigotes LmGT2 that are glucose transport deficient and complemented with the L. Mexicana glucose transporter 2. Activity is measured by DNA content using SYBR green in vitro
Assay type: functional
Here the recorded inhibition is given for each entry.
assayReadout: inhibition (%)

compound | assayReadout | quantitativeResult
O=C(N[C@H]1CCN(Cc2ccc(OC3CCN(Cc4ccccc4)CC3)cc2)C1)c1ccc(Cl)c(Cl)c1 | inhibition | -1.06
Cc1ccc(NC(C)C(=O)Nc2ccccc2)cc1S(=O)(=O)N1CCCCCC1 (centres undefined) | inhibition | 9.12
CCN(CC)CCNC(=O)c1ccc(NC(=O)c2cc(-c3ccncc3)nc3ccccc23)cc1 | inhibition | -1.61
CC(C)NCc1cccc(-c2ccc(NS(=O)(=O)c3cccc4cccnc34)cc2)c1 | inhibition | -2.82

Taken from ChEMBL document CHEMBL3433997.
